Sequence of the target: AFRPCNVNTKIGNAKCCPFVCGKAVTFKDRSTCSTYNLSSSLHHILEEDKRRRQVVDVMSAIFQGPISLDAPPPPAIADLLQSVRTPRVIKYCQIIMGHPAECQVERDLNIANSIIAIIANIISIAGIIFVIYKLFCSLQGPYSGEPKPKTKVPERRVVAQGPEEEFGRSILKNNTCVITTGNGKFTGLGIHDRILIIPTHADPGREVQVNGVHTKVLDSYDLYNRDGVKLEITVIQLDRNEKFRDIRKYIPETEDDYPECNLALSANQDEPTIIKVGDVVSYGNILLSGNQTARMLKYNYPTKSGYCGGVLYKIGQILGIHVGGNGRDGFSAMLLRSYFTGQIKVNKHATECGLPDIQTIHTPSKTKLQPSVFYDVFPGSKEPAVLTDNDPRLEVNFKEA
test_readout: pIC50
Recall that pIC50 is obtained by taking minus log10 of the concentration measured in molar.

CCOC(=O)CCN1C(=O)c2ccccc2C(CC(=O)c2ccccc2)C1=O (stereo not given)	4.26
CSCCCN1C(=O)c2ccccc2C(CC(=O)c2ccccc2)C1=O (stereo not given)	3.88
CN1C(=O)c2ccccc2C(CC(=O)c2ccc(F)cc2)C1=O (stereo not given)	4.39

stdin: Which pIC50 value is on record for CS(=O)(=O)CCCN1C(=O)c2ccccc2C(CC(=O)c2ccccc2)C1=O (stereo not given) ?
stdout: 4.60

stdin: Ok, now CS(=O)(=O)CCN1C(=O)c2ccccc2C(CC(=O)c2ccccc2)C1=O (stereo not given)
stdout: 4.66

====

The following molecules are listed with their measured CC50 values.
experiment: Cytotoxic effect against HeLa cell line measured by XTT assay; assay type: cell-based; conditions: human, HeLa cells; read-out: TC50 (the source's name)

CS(=O)(=O)CCCN1C(=O)c2ccccc2C(CC(=O)c2ccccc2)C1=O (stereo not given)	> 100 µM
CSCCCN1C(=O)c2ccccc2C(CC(=O)c2ccccc2)C1=O (stereo not given)	63 µM
CCOC(=O)CCN1C(=O)c2ccccc2C(CC(=O)c2ccccc2)C1=O (stereo not given)	> 100 µM
CN1C(=O)c2ccccc2C(CC(=O)c2ccc(F)cc2)C1=O (stereo not given)	> 100 µM

stdin: Which CC50 value is on record for CS(=O)(=O)CCN1C(=O)c2ccccc2C(CC(=O)c2ccccc2)C1=O (stereo not given) ?
stdout: 70.5 µM

====

molecular target: Human rhinovirus A protease (Human rhinovirus sp.); assay: Inhibition of Protease 3C of HRV-14 (human rhinovirus); design: concentration or dose not given beside the values; details: Rhinovirus B; concentration not given here
test_readout: inhibition (%)
Respond numerically; units are % and should not be typed.

A selection of reference data follows.
CSCCN1C(=O)Cc2ccccc2C1=O	13
CS(=O)(=O)CCN1C(=O)c2ccccc2C(CC(=O)c2ccccc2)C1=O (configuration not stated)	100
C[S+]([O-])CCN1C(=O)Cc2ccccc2C1=O (configuration not stated)	19
CN1C(=O)c2ccccc2C(CC(=O)c2ccc(F)cc2)C1=O (configuration not stated)	72
CCOC(=O)CCN1C(=O)c2ccccc2C(CC(=O)c2ccccc2)C1=O (configuration not stated)	71
NC(=O)CCN1C(=O)Cc2ccccc2C1=O	11

stdin: Which inhibition value is on record for CS(=O)(=O)CCN1C(=O)Cc2ccccc2C1=O ?
stdout: 6

====

molecular target: Human rhinovirus A protease (Human rhinovirus sp.); assay: Inhibition of Protease 3C of HRV-14 (human rhinovirus); set-up: concentration or dose not given beside the values; settings: Rhinovirus B; concentration not given here
Label -1 if inhibition falls below 10%; label 1 in every other case.

Sample answers from the record:
CSCCCN1C(=O)c2ccccc2C(CC(=O)c2ccccc2)C1=O (configuration not stated)	1
CCOC(=O)CCN1C(=O)c2ccccc2C(C(C)=O)C1=O (configuration not stated)	-1
CS(=O)(=O)CCCN1C(=O)c2ccccc2C(CC(=O)c2ccccc2)C1=O (configuration not stated)	1

stdin: Answer whether inhibition of O=C(O)CCN1C(=O)Cc2ccccc2C1=O is greater than or equal to 10%.
stdout: -1

stdin: Ok, now CSCCCN1C(=O)Cc2ccccc2C1=O
stdout: 1

stdin: Ok, now CCOC(=O)CCN1C(=O)Cc2ccccc2C1=O
stdout: 1

stdin: Ok, now CN1C(=O)Cc2ccccc2C1=O
stdout: 1
